Listed next: entries and their corresponding viability.
- test description: HUVEC growth inhibition – cell-based, human, primary screen (AID 575);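 also: 100% = median of untreated cell wells with 0.1% DMSO on each plate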
- condition description: HUVEC proliferation, CellTiter-Glo luminescence, 72 h; at 10 µM; active compounds read low
Hi! Could you send only the number? It should be in %, unit omitted.

| compound | assay value |
| --- | --- |
| Cn1c(=O)n(CCN2CCOCC2)c(=O)c2c1nc1n2CCN1c1ccccc1 | 52.8 |
| O=c1c2cnn(-c3ccccc3)c2ncn1/N=C/c1ccncc1 | 108 |
| N#Cc1c(NCc2ccccc2)ccnc1NCc1cccnc1 | 59.2 |
| CCSc1nnc(-c2ccc(OC)cc2)o1 | 92.7 |
| Cc1occc1C(=O)Nc1ccc(S(=O)(=O)N2CCN(C)CC2)cc1 | 89.2 |

So what's the measured viability for this one? `O=C(CSc1nnc(SCc2ccc(Cl)cc2)s1)N1CCN(C(=O)c2ccco2)CC1` 70.3

So what's the measured viability for this one? CCC(Sc1nc2n[nH]c(C)c2c(=N)n1-c1cc(Cl)ccc1C)C(=O)N1CCOCC1 (configuration not stated) 71.2

---

- test description: SK-BR-3 cell growth inhibitors, pilot screen, 24 h, human (AID 572);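 also: compound exposure lasted between 18 and 24 h rather than exactly 24 h; 100% = carrier-treated control wells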
- condition description: SK-BR-3 viability, CellTiter-Glo luminescence, at 10 µM, active compounds read low
assay metric: viability (%)
Hi! Could you send only the number? It should be in %, unit omitted.

| molecule | viability, % |
| --- | --- |
| Cc1coc(NC(=O)CSc2nc(-c3ccncc3)cc(C(F)(F)F)c2C#N)n1 | 106 |
| COc1cccc(-c2nnc(NC(=O)Cc3cccs3)s2)c1 | 88 |
| Cc1nc2ccc(S(=O)(=O)NCC(=O)N(C)Cc3ccco3)cc2s1 | 109 |
| COc1cc(C(=O)OCc2cc3ccccc3[nH]c2=O)cc(OC)c1OC | 117 |
| Cc1cc(NS(=O)(=O)c2ccc(NC(=O)C(C)N3C(=O)c4ccccc4C3=O)cc2)nc(C)n1 (stereo not given) | 99 |
| COc1cc(-c2nc(S(=O)(=O)c3ccc(C)cc3)c(N(C)C)o2)cc(OC)c1OC | 71 |
| CCCN1Cc2cccc(C(=O)NC3CCCC3)c2C1=O | 111 |
| CCCCOc1ccc(S(=O)(=O)n2c(C)nc3ccccc32)cc1 | 138 |
| CC(=O)N1CCc2cc(S(=O)(=O)CCC(=O)N3CCN(C(=O)c4ccco4)CC3)ccc21 | 99 |

API: the following record is the query input.
So what's the measured viability for this one? `Nc1nc(N)c2nc(-c3ccccc3)c(N)nc2n1` 128

---

- test description: 384-well plate pilot, post-Golgi transport modulator project, inhibition of yeast transport mutant growth (AID 636)
- condition description: absorbance 615 nm, about 18 h, active compounds read high
Active and inactive are the calls of the source. No stated cut-off is given here; in the data, active means inhibition above about 31%; inactive means the rest.
assay metric: inhibition

| molecule | inhibition |
| --- | --- |
| O=C(NCCCN1CCCC1=O)c1cccnc1 | -4.25% (inactive) |
| CC(C)OP(=O)(c1ccc(N(C)C)cc1)C(O)c1ccccc1F (configuration not stated) | -4.93% (inactive) |
| Nc1c(C(=O)NCc2ccco2)nnn1Cc1ccccc1 | -6.32% (inactive) |
| Cc1nc2scc(-c3ccco3)c2c(=O)n1/N=C/N(C)C | -4.86% (inactive) |
| CCn1c(CSc2ncccn2)nnc1SCC(=O)N1c2ccccc2CC1C (configuration not stated) | -5.73% (inactive) |
| CC(C)CN(CC(C)C)C(=O)C12CCC(C)(C(=O)C1)C2(C)C (configuration not stated) | 1.33% (inactive) |

So what's the measured inhibition for this one? `COc1ccccc1N1CCN(C(=O)CN(Cc2ccc(Cl)cc2)S(C)(=O)=O)CC1` -5.45% (inactive)

So what's the measured inhibition for this one? `O=C(Nc1ccc(N2CCCC2=O)cc1)c1cccc(F)c1` -4.61% (inactive)

---

- test description: growth suppression of yeast trafficking mutant, preliminary HTS, modulators of trafficking downstream of Golgi apparatus project, 1536-format plate, OD 615 nm (AID 637)
- condition description: yeast transport mutant growth, absorbance 615 nm, 18 h
Calls of active or inactive are those of the source. Cut-off read from the data, not from the text of the source: active = inhibition above about 30%; inactive = the rest.
Hi! Could you answer with just one of these? active, inactive

Answered examples (8):
| molecule | assigned label |
| --- | --- |
| Cc1cc(CN2CCN(CCC#N)CC2)c(O)c(C2(C)CCCCC2)c1 | active |
| CCOc1ccc(C(CC(=O)O)NC(=O)c2ccco2)cc1OC (stereo unspecified) | inactive |
| CCCCNC(=O)c1nnn(-c2ccccc2)c1N | inactive |
| O=C(COc1ccccc1)N1CCN(c2ncnc3c2cnn3-c2ccccc2)CC1 | inactive |
| Cc1cc(NC(=O)CSc2nccn2-c2ccc(Cl)cc2)no1 | inactive |
| Cc1cc(O)c(NC(=O)c2ccc(Br)o2)cc1C | inactive |
| COC(=O)c1ccc2c(=O)n(NC(C)=O)c(=S)[nH]c2c1 | inactive |
| O=C(O)c1ccc(COc2c(F)c(F)c(F)c(F)c2F)o1 | inactive |

# outcome recorded in this test, key = `COCCn1c(CN2CCN(c3ccccc3F)CC2)nc2c1c(=O)n(C)c(=O)n2C` inactive

# outcome recorded in this test, key = `c1ccc(-c2cc(-c3nc(-c4ccccn4)no3)c3ccccc3n2)cc1` inactive

# outcome recorded in this test, key = `CCCNC(=O)c1c(N)n(-c2cc(OC)cc(OC)c2)c2nc3ccccc3nc12` inactive

---

Listed next: entries and their corresponding inhibition.
- test description: 384-well plate pilot, post-Golgi transport modulator project, inhibition of yeast transport mutant growth (AID 636)
- condition description: absorbance 615 nm, about 18 h, active compounds read high
Hi! Could you send only the number? It should be in %, unit omitted.

| compound | assay metric | assay value |
| --- | --- | --- |
| O=C(COC(=O)CCOc1ccccc1)Nc1ccc(Cl)cn1 | inhibition | -2.74 |

So what's the measured inhibition for this one? `CC1=C(C#N)C(c2ccc3ncccc3c2)C(C#N)=C(C)N1` -4.74

So what's the measured inhibition for this one? `O=C(NCc1ccco1)c1cc2c(s1)CSC2` -0.92

So what's the measured inhibition for this one? `NC(=O)c1c(NC(=O)Cc2cccs2)sc2c1CCC2` -0.27

So what's the measured inhibition for this one? `COc1ccc(/C=N/n2cnnc2SCc2ccc(OC)cc2)cc1` 0

So what's the measured inhibition for this one? Cc1cccc(OCC(=O)N2CCC(c3ccccc3)C2)c1 (stereo unspecified) -4.05

---

- test description: growth inhibitors of H69AR lung tumor, primary screen, human, duplicate replicates (AID 580);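 also: 100% = mean luminescence of untreated wells and 0% = no signal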
- condition description: H69AR lung tumor cells viability, ATP luminescence, 72 h; at 10 µM
Active and inactive are the calls of the source.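 The calls were made as follows: active = viability at or under a set limit in both replicates, limit being median viability minus 3 SD (cut at about 48% in these data, passing the limit was not always enough); inconclusive = at or under the limit in just one replicate; inactive = at or above the limit in both replicates.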
Hi! Could you answer with just one of these? TRUE (active), FALSE (inactive)

# outcome recorded in this test, key = `CCOC(=O)Cc1nnc(NC(=O)CSc2nnc3c4ccccc4n(C(C)C)c3n2)s1` FALSE

# outcome recorded in this test, key = `Cc1ccc2nc(-c3ccc4c(c3)OCCO4)cc(C(=O)O)c2c1` FALSE

# outcome recorded in this test, key = `O=C(Nc1ccc(N2CCCC2=O)cc1)c1cccc(F)c1` FALSE

# outcome recorded in this test, key = `CC(=O)Nc1c(O)n(C)c2ccccc12` FALSE

# outcome recorded in this test, key = `O=c1c2[nH]c3ccc(Cl)cc3c2ncn1Cc1ccccn1` FALSE

# outcome recorded in this test, key = `CN(C)c1cccc(N=C2C=C(N3CCOCC3)CC(C)(C)C2)c1` FALSE

# outcome recorded in this test, key = `Cc1cc(C)c2c(n1)nn1c(NCCCN3CCOCC3)cc(C)nc21` FALSE

# outcome recorded in this test, key = `CCOC(=O)N1CCN(C(=O)Nc2ccc3oc(C)nc3c2)CC1` FALSE

# outcome recorded in this test, key = `COc1ccc(CN(C(=O)CSc2nnc(-c3ccccc3F)o2)c2ccc(F)cc2)cc1` FALSE

# outcome recorded in this test, key = OC(CCCN1CCC(O)(c2ccc(Cl)cc2)CC1)c1ccc(F)cc1 (configuration not stated) FALSE

# outcome recorded in this test, key = CCNC(=O)CC1C(=O)N(c2ccccc2)C(=O)N1CCC(C)C (configuration not stated) FALSE

---

- test description: HUVEC growth inhibition – cell-based, human, primary screen (AID 575);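 also: 100% = median of untreated cell wells with 0.1% DMSO on each plate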
- condition description: HUVEC proliferation, CellTiter-Glo luminescence, 72 h; at 10 µM; active compounds read low
Listed next: entries and their corresponding viability.
Hi! Could you send only the number? It should be in %, unit omitted.

Completed entries (count: 8):
| compound | viability (%) |
| --- | --- |
| COc1ccc(CCNC(=O)CSCc2n[nH]c(=O)[nH]2)cc1OC | 89.3 |
| CC1Cc2ccccc2N1C(=O)c1cccnc1 (centres undefined) | 92.8 |
| O=C(CN(c1ccc(F)cc1)S(=O)(=O)c1ccc2c(c1)OCCO2)NCC1CCCO1 (centres undefined) | 96.5 |
| O=C(NC1(C(F)(F)F)NC(=O)N(Cc2ccco2)C1=O)c1cccnc1 (centres undefined) | 109 |
| Clc1ccc(OCCCn2cncn2)cc1Cl | 92.5 |
| C=CCSc1n[nH]c(-c2ccc(OC)cc2)n1 | 108 |
| CC1CCCc2sc3nc(NCc4ccco4)n4ncnc4c3c21 (centres undefined) | 79.2 |
| CCCOc1ccc(S(=O)(=O)NCCCN2CCOCC2)c2ccccc12 | 83.2 |

So what's the measured viability for this one? `Cc1nc(C)c2c(c1C(F)(F)F)-c1ccccc1C2(F)F` 102

So what's the measured viability for this one? `O=C(NCc1cccnc1)c1ccc(Cl)c(Cl)c1` 95.2

So what's the measured viability for this one? `COc1cccc(Oc2ccc(N)cc2)c1` 74.9

Taken from PubChem BioAssay.
